# Test system: CCRF-CEM leukemia
# TEST NAME: NCI-60 one-dose screen, 48 h
# TEST CONDITIONS: 10 µM unless noted
About 83,000 compounds went through this panel and 20% of them were active in at least one assay; those are over-represented in the sample as a whole. The source made the active and inactive calls. Rule for the calls: active = growth percent below 10; inactive = the rest.
Tick one outcome: True for active, False for inactive

Please review the entries below; each comes with its answer.
CC(C)(C)Nc1nc2c(OCCc3ccccc3)cccn2c1-c1ccc(O)cc1; False
COc1cccc(N2CCN(c3ncnc4c3[nH]c3ccc(F)cc34)C[C@@H]2C)c1; True
COc1cc(/C=C/C(=O)c2ccc(C(F)(F)F)cc2)ccc1Oc1nc(NCCO)nc(N2CCOCC2)n1; True
Cc1nc(-c2cc3ccccc3oc2=O)ccc1C(=O)/C=C/c1ccccn1; True
O=C(N/N=C/c1ccc(Br)s1)c1[nH]c2ccc(Br)cc2c1-c1ccccc1; True
O=C(CCN1C(=O)/C(=C/c2ccccc2F)SC1=S)N1CCOCC1; False

Field: outcome | Entry: "CS(=O)(=O)c1ccc(-c2nc3ccccn3c2C=Nc2ccc(Cl)cc2)cc1"
False

Field: outcome | Entry: "CS(=O)(=O)c1ccc(-c2nc3ccccn3c2-c2nc3ccc([N+](=O)[O-])cc3[nH]2)cc1"
False
